The reported numbers originate from ChEMBL document CHEMBL1147582.

Test system: Candida albicans
experimentalProtocol: Antifungal activity against Candida albicans at a concentration of 5 mg/mL in MeOH
Type: functional
Please respond with reported Zone size for every item in the list.
Numbers only, in mm.

Check out these entries, answers already filled in.
INSERT INTO results (compound, number) VALUES
  ('CCC(C)CCCCCCCCCCC(=O)N[C@@H]1C[C@@H](O)C(c2ccc(OC)c(OC)c2)NC(=O)[C@@H]2[C@@H](O)[C@@H](C)CN2C(=O)C(CO)NC(=O)C([C@@H](O)[C@H](O)c2ccc(O)cc2)NC(=O)[C@@H]2C[C@@H](O)CN2C(=O)C(C(C)O)NC1=O (stereo not given in full)', 29),
  ('CCC(C)CCCCCCCCCCC(=O)N[C@@H]1C[C@@H](O)[C@H](OCc2ccccc2)NC(=O)[C@@H]2[C@@H](O)[C@@H](C)CN2C(=O)C(CO)NC(=O)C([C@@H](O)Cc2ccc(O)cc2)NC(=O)[C@@H]2C[C@@H](O)CN2C(=O)C(C(C)O)NC1=O (stereo not given in full)', 17),
  ('CCC(C)CCCCCCCCCCC(=O)N[C@@H]1C[C@@H](O)C(OC)NC(=O)[C@@H]2[C@@H](O)[C@@H](C)CN2C(=O)C(CO)NC(=O)C([C@@H](O)[C@H](O)c2ccc(O)cc2)NC(=O)[C@@H]2C[C@@H](O)CN2C(=O)C(C(C)O)NC1=O (stereo not given in full)', 27),
  ('CCC(C)CCCCCCCCCCC(=O)N[C@@H]1C[C@@H](O)C(CN)NC(=O)[C@@H]2[C@@H](O)[C@@H](C)CN2C(=O)C(CO)NC(=O)C([C@@H](O)[C@H](O)c2ccc(O)cc2)NC(=O)[C@@H]2C[C@@H](O)CN2C(=O)C(C(C)O)NC1=O (stereo not given in full)', 25);

Query compound follows.
Incoming: What value of Zone size has been reported for the following compound? CCC(C)CCCCCCCCCCC(=O)N[C@@H]1C[C@@H](O)CNC(=O)[C@@H]2[C@@H](O)[C@@H](C)CN2C(=O)[C@H](CO)NC(=O)[C@H]([C@@H](O)C(O)c2ccc(O)cc2)NC(=O)[C@@H]2C[C@@H](O)CN2C(=O)[C@H]([C@@H](C)O)NC1=O (stereo not given in full)
Outgoing: 29
